Biological target: Neuropeptide Y receptor type 1 (Homo sapiens)
Sequence (P25929 whole entry): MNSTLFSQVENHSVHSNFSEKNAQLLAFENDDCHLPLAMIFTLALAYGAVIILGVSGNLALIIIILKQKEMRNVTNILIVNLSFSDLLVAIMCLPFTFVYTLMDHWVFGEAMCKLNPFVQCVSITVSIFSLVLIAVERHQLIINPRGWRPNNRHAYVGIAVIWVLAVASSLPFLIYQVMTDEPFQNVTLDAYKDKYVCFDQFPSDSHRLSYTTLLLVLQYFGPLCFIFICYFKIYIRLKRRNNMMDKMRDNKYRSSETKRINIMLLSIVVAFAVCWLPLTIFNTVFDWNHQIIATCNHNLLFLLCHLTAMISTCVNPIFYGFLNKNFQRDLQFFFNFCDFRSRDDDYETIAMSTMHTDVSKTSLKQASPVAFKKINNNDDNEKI
Test: Displacement of Cy5-pNPY from human Y1 receptor expressed in HEL cells after 90 to 120 mins by flow cytometry
Type: cell-based
Residues, ends and D or L forms follow the SMILES beside them.
This listing pairs compounds with measured Ki.

Compound	System Under Test	Reported
CCCC[C@H](NC(=O)[C@H](CC(N)=O)NC(=O)[C@@H](NC(=O)[C@H](Cc1ccc(O)cc1)NC(=O)[C@H](CCCNC(=N)N)NC(=O)[C@H](CCCNC(=N)N)NC(C)=O)[C@@H](C)CC)C(=O)N[C@@H](CC(C)C)C(=O)N[C@H](C(=O)N[C@@H](CCCNC(=N)N)C(=O)N1CCC[C@H]1C(=O)N[C@@H](CCCNC(=N)N)C(=O)N[C@@H](Cc1ccc(O)cc1)C(N)=O)[C@@H](C)O (HELM PEPTIDE1{[ac].R.R.Y.I.N.[Nle].L.T.R.P.R.Y.[am]}$$$$V2.0)	Neuropeptide Y receptor type 1 (Homo sapiens)	0.281 µM
CC[C@H](C)[C@H](NC(=O)[C@H](Cc1ccc(O)cc1)NC(=O)[C@H](Cc1cnc[nH]1)NC(=O)[C@H](CCCN=C(N)N)NC(C)=O)C(=O)N[C@@H](CC(N)=O)C(=O)N[C@@H](CC(C)C)C(=O)N[C@H](C(=O)N[C@H](C(=O)N[C@@H](CCCN=C(N)N)C(=O)N[C@H]1CCC[C@H]1C(=O)N[C@@H](CCCN=C(N)N)C(=O)N[C@@H](Cc1ccc(O)cc1)C(N)=O)[C@@H](C)O)[C@@H](C)CC (HELM PEPTIDE1{[ac].R.H.Y.I.N.L.I.T.R.[O=C([C@@H]1CCC[C@@H]1N[*:1])[*:2]].R.Y.[am]}$$$$V2.0)	Neuropeptide Y receptor type 1 (Homo sapiens)	> 1 µM
CCCC[C@H](NC(=O)[C@H](CC(N)=O)NC(=O)[C@@H](NC(=O)[C@H](Cc1ccc(O)cc1)NC(=O)[C@H](CCCNC(=N)N)NC(=O)[C@H](CCCNC(=N)N)NC(C)=O)[C@@H](C)CC)C(=O)N[C@@H](CC(C)C)C(=O)N[C@H](C(=O)N[C@@H](CCCNC(=N)N)C(=O)N[C@H]1CCC[C@H]1C(=O)N[C@@H](CCCNC(=N)N)C(=O)N[C@@H](Cc1ccc(O)cc1)C(N)=O)[C@@H](C)O (HELM PEPTIDE1{[ac].R.R.Y.I.N.[Nle].L.T.R.[O=C([C@@H]1CCC[C@@H]1N[*:1])[*:2]].R.Y.[am]}$$$$V2.0)	Neuropeptide Y receptor type 1 (Homo sapiens)	> 1 µM
CC[C@H](C)[C@H](NC(=O)[C@H](Cc1ccc(O)cc1)NC(=O)[C@H](Cc1cnc[nH]1)NC(=O)[C@H](CCCNC(=N)N)NC(C)=O)C(=O)N[C@@H](CC(N)=O)C(=O)N[C@@H](CC(C)C)C(=O)N[C@H](C(=O)N[C@H](C(=O)N[C@@H](CCCNC(=N)N)C(=O)N[C@H]1C[C@@H](C(=O)N[C@@H](CCCNC(=N)N)C(=O)N[C@@H](Cc2ccc(O)cc2)C(N)=O)C1(C)C)[C@@H](C)O)[C@@H](C)CC (HELM PEPTIDE1{[ac].R.H.Y.I.N.L.I.T.R.[CC1(C)[C@@H](N[*:1])C[C@H]1C(=O)[*:2]].R.Y.[am]}$$$$V2.0)	Neuropeptide Y receptor type 1 (Homo sapiens)	> 1 µM

Exam item: Look at this compound and give its reported Ki. CC(=O)N[C@H](C(=O)N[C@@H](CCCNC(=N)N)C(=O)N[C@H]1CCC[C@H]1C(=O)N[C@@H](CCCNC(=N)N)C(=O)N[C@@H](Cc1ccc(O)cc1)C(N)=O)[C@@H](C)O (HELM PEPTIDE1{[ac].T.R.[O=C([C@@H]1CCC[C@@H]1N[*:1])[*:2]].R.Y.[am]}$$$$V2.0)
Marked response: > 1 µM

Cited source for all entries: ChEMBL document CHEMBL2439969
